molecular target: 5-hydroxytryptamine receptor 2A (Homo sapiens)
Sequence (P28223 whole entry): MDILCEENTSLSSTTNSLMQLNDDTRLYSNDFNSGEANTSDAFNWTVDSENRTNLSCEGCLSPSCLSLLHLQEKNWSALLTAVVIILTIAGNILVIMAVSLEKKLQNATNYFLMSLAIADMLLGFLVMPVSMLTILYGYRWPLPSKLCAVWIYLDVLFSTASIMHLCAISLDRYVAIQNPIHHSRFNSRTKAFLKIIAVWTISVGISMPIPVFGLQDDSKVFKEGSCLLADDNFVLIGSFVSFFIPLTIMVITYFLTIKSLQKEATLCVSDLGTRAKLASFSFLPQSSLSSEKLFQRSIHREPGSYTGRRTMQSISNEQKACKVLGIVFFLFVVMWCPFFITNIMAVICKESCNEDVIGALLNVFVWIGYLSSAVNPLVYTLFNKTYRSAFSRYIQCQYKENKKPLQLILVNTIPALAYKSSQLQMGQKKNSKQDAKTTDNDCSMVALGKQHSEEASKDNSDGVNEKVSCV
measured.parameter: Ki (nM)

> print(dat)
                                   compound                              assay.system  measured.parameter  readout.unit  experimental.value
1  CC(Sc1cc(Cl)cc(Cl)c1)c1nc(N)nc(N2CCN(C)CC2)n1 (racemic)  5-hydroxytryptamine receptor 2A (Homo sapiens)                  Ki            nM                 178
2  CCC(Sc1ccc(Cl)c(Cl)c1)c1nc(N)nc(N2CCN(C)CC2)n1 (racemic)  5-hydroxytryptamine receptor 2A (Homo sapiens)                  Ki            nM                 547
3  CCC(Oc1cccc(Cl)c1Cl)c1nc(N)nc(N2CCNCC2)n1 (racemic)  5-hydroxytryptamine receptor 2A (Homo sapiens)                  Ki            nM                 118
4  CCC(Sc1cccc(Cl)c1Cl)c1nc(N)nc(N2CCN(C)CC2)n1 (racemic)  5-hydroxytryptamine receptor 2A (Homo sapiens)                  Ki            nM                2150
5  CCC(Sc1cc(Cl)cc(Cl)c1)c1nc(N)nc(N2CCN(C)CC2)n1 (racemic)  5-hydroxytryptamine receptor 2A (Homo sapiens)                  Ki            nM                 178

---

molecular target: D(2) dopamine receptor (Homo sapiens, UniProt P14416)
Sequence (P14416 whole entry): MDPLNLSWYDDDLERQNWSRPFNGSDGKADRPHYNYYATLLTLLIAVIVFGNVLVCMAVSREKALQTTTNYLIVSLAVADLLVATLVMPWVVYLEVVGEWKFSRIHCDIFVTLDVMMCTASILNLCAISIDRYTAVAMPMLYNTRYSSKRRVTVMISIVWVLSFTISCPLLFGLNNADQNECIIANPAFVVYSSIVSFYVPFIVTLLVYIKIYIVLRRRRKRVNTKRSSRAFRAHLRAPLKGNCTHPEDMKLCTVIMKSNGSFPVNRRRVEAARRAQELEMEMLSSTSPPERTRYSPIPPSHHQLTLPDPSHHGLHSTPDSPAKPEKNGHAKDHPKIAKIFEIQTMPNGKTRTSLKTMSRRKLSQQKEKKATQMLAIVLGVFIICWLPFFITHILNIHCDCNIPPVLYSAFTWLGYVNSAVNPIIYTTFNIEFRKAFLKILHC
measured.parameter: Ki (nM)

> print(dat)
                                   compound                              assay.system  measured.parameter  readout.unit  experimental.value
1  CCC(Sc1cc(Cl)ccc1Cl)c1nc(N)nc(N2CCN(C)CC2)n1 (racemic)  D(2) dopamine receptor (Homo sapiens, UniProt P14416)                  Ki            nM                1000
2  CCCC(Sc1cc(Cl)cc(Cl)c1)c1nc(N)nc(N2CCN(C)CC2)n1 (racemic)  D(2) dopamine receptor (Homo sapiens, UniProt P14416)                  Ki            nM                 663
3  CC(Sc1cc(Cl)cc(Cl)c1)c1nc(N)nc(N2CCN(C)CC2)n1 (racemic)  D(2) dopamine receptor (Homo sapiens, UniProt P14416)                  Ki            nM                 362
4  CCC(Sc1ccc(Cl)c(Cl)c1)c1nc(N)nc(N2CCN(C)CC2)n1 (racemic)  D(2) dopamine receptor (Homo sapiens, UniProt P14416)                  Ki            nM                 897
5  CN1CCN(c2nc(N)nc(C(C)(C)Oc3ccccc3Cl)n2)CC1  D(2) dopamine receptor (Homo sapiens, UniProt P14416)                  Ki            nM                 797
6  CCCC(Sc1cc(Cl)ccc1Cl)c1nc(N)nc(N2CCN(C)CC2)n1 (racemic)  D(2) dopamine receptor (Homo sapiens, UniProt P14416)                  Ki            nM                 971
7  CC(Sc1cc(Cl)ccc1Cl)c1nc(N)nc(N2CCN(C)CC2)n1 (racemic)  D(2) dopamine receptor (Homo sapiens, UniProt P14416)                  Ki            nM                4780
8  CCC(Sc1cc(Cl)cc(Cl)c1)c1nc(N)nc(N2CCN(C)CC2)n1 (racemic)  D(2) dopamine receptor (Homo sapiens, UniProt P14416)                  Ki            nM                 362

---

Reported Ki by item:
target: 5-hydroxytryptamine receptor 2A (Homo sapiens)
measured.parameter: Ki (nM)

> print(dat)
                                   compound                              assay.system  measured.parameter  experimental.value
1  CCC(Oc1ccccc1)c1nc(N)nc(N2CCNCC2)n1 (racemic)  5-hydroxytryptamine receptor 2A (Homo sapiens)                  Ki                4820
2  CN1CCN(c2nc(N)nc(C(C)(C)Oc3ccccc3Cl)n2)CC1  5-hydroxytryptamine receptor 2A (Homo sapiens)                  Ki                 573
3  CCCCC(Sc1cccc(Cl)c1Cl)c1nc(N)nc(N2CCN(C)CC2)n1 (racemic)  5-hydroxytryptamine receptor 2A (Homo sapiens)                  Ki                 179
4  CCCC(Sc1cc(Cl)cc(Cl)c1)c1nc(N)nc(N2CCN(C)CC2)n1 (racemic)  5-hydroxytryptamine receptor 2A (Homo sapiens)                  Ki                 500
5  CCC(Sc1ccccc1)c1nc(N)nc(N2CCN(C)CC2)n1 (racemic)  5-hydroxytryptamine receptor 2A (Homo sapiens)                  Ki                 427
6  CCC(Sc1cc(Cl)ccc1Cl)c1nc(N)nc(N2CCN(C)CC2)n1 (racemic)  5-hydroxytryptamine receptor 2A (Homo sapiens)                  Ki                 551

---

What follows is a collection of Ki values obtained with UniProtKB P34969.
Sequence (P34969 whole entry): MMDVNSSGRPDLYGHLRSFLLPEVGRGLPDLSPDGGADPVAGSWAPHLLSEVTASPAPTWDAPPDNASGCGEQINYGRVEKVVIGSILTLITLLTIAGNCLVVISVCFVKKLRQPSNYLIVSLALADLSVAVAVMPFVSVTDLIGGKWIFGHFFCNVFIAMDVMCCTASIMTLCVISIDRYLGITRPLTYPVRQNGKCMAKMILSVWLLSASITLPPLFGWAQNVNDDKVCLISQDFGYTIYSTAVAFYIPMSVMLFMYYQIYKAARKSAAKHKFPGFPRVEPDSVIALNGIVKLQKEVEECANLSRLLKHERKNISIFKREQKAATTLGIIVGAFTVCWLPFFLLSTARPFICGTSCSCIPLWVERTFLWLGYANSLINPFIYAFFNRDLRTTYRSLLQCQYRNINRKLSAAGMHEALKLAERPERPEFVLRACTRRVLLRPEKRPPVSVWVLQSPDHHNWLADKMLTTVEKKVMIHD
measured.parameter: Ki (µM)

> print(dat)
                                    compound      assay.system  measured.parameter  readout.unit  experimental.value
 1  CCC(Oc1cccc(Cl)c1Cl)c1nc(N)nc(N2CCNCC2)n1 (racemic)  UniProtKB P34969                  Ki            µM                4.51
 2  CC(Sc1cc(Cl)ccc1Cl)c1nc(N)nc(N2CCN(C)CC2)n1 (racemic)  UniProtKB P34969                  Ki            µM                  61
 3  CCCCC(Sc1cccc(Cl)c1Cl)c1nc(N)nc(N2CCN(C)CC2)n1 (racemic)  UniProtKB P34969                  Ki            µM                 1.8
 4  CCC(Sc1cc(Cl)ccc1Cl)c1nc(N)nc(N2CCN(C)CC2)n1 (racemic)  UniProtKB P34969                  Ki            µM                5.14
 5  CCC(Oc1ccccc1)c1nc(N)nc(N2CCNCC2)n1 (racemic)  UniProtKB P34969                  Ki            µM                8.15
 6  CC(Sc1cc(Cl)cc(Cl)c1)c1nc(N)nc(N2CCN(C)CC2)n1 (racemic)  UniProtKB P34969                  Ki            µM                6.04
 7  CCC(Sc1ccc(Cl)c(Cl)c1)c1nc(N)nc(N2CCN(C)CC2)n1 (racemic)  UniProtKB P34969                  Ki            µM                5.16
 8  CCC(Sc1cccc(Cl)c1Cl)c1nc(N)nc(N2CCNCC2)n1 (racemic)  UniProtKB P34969                  Ki            µM                3.32
 9  CCC(Sc1cccc(Cl)c1Cl)c1nc(N)nc(N2CCN(C)CC2)n1 (racemic)  UniProtKB P34969                  Ki            µM                2.56
10  CCCC(Sc1cc(Cl)cc(Cl)c1)c1nc(N)nc(N2CCN(C)CC2)n1 (racemic)  UniProtKB P34969                  Ki            µM                8.63
11  CCC(Sc1cc(Cl)cc(Cl)c1)c1nc(N)nc(N2CCN(C)CC2)n1 (racemic)  UniProtKB P34969                  Ki            µM                6.04

---

What follows is a collection of Ki values obtained with 5-hydroxytryptamine receptor 6 (Homo sapiens, UniProt P50406).
Sequence (P50406 whole entry): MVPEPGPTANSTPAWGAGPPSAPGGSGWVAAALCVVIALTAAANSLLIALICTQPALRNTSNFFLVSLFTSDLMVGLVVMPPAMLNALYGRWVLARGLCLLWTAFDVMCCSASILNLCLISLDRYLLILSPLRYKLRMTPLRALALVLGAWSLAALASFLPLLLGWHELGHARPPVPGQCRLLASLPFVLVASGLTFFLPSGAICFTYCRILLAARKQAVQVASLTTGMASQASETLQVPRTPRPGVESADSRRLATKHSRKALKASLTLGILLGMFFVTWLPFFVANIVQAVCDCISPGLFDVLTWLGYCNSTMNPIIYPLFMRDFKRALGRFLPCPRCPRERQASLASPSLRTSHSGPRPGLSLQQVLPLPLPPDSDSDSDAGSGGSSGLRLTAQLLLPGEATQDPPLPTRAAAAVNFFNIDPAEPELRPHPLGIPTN
measured.parameter: Ki (nM)

> print(dat)
                                   compound  experimental.value
1  CCC(Sc1cc(Cl)cc(Cl)c1)c1nc(N)nc(N2CCN(C)CC2)n1 (racemic)                 103
2  CCCCC(Sc1cccc(Cl)c1Cl)c1nc(N)nc(N2CCN(C)CC2)n1 (racemic)                 169
3  CCC(Sc1ccc(Cl)c(Cl)c1)c1nc(N)nc(N2CCN(C)CC2)n1 (racemic)                 181
4  CCC(Oc1cccc(Cl)c1Cl)c1nc(N)nc(N2CCNCC2)n1 (racemic)                 179
5  CC(Sc1cc(Cl)cc(Cl)c1)c1nc(N)nc(N2CCN(C)CC2)n1 (racemic)                 103
6  CC(Sc1cc(Cl)ccc1Cl)c1nc(N)nc(N2CCN(C)CC2)n1 (racemic)                 169
